All values here come from the Deep4Chem optical property database.

Reported absorption maximum values follow for various compounds
TEST METHOD NOTES: solvent given as SMILES
MEASUREMENT PARAMETERS: in ClCCl

Below are worked cases with known answers.
CCOC(=O)c1ccc(C2=Cc3cc4ccccc4cc3P2(=O)c2ccccc2)cc1 (configuration not stated)
390 nm
CC(C)(C)c1ccc2c(c1)c1cc(C(C)(C)C)ccc1n2-c1cccc(-c2nc(-c3cccc(P(=O)(c4ccccc4)c4ccccc4)c3)nc(-c3cccc(P(=O)(c4ccccc4)c4ccccc4)c3)n2)c1
343 nm

Please fill in: absorption maximum reported for CC(C)(C)c1ccc(-c2c3ccccc3c3n2[B-](F)(F)[N+]2=Cc4c5ccccc5c(-c5ccc(C(C)(C)C)cc5)n4[B-](F)(F)[N+]2=C3)cc1 = 567 nm

Please fill in: absorption maximum reported for CC(C)[Si]1(C(C)C)c2cc(C=C(C#N)C#N)ccc2-c2ccc(N(c3ccccc3)c3ccccc3)cc21 = 481 nm

Please fill in: absorption maximum reported for COc1ccc(C#Cc2ncc(-c3ccccc3)o2)cc1OC = 330 nm

Please fill in: absorption maximum reported for COc1cc(OC)cc(C2=C3C(C)=C(I)C(/C=C/c4c[nH]c5ccccc45)=[N+]3[B-](F)(F)n3c(/C=C/c4c[nH]c5ccccc45)c(I)c(C)c32)c1 = 702 nm

Please fill in: absorption maximum reported for COc1cn2cc(-c3ccc(C#N)cc3)[n-][n+]2c1 = 378 nm
